- measured_target: recombinant rat MASP2 active protease (amino acids 296-685, C-terminal His Tag) (rat, UniProt Q9JJS8 296-685)
- Sequence (Q9JJS8 other isoform, or with tags, fused parts or gaps limits assumed): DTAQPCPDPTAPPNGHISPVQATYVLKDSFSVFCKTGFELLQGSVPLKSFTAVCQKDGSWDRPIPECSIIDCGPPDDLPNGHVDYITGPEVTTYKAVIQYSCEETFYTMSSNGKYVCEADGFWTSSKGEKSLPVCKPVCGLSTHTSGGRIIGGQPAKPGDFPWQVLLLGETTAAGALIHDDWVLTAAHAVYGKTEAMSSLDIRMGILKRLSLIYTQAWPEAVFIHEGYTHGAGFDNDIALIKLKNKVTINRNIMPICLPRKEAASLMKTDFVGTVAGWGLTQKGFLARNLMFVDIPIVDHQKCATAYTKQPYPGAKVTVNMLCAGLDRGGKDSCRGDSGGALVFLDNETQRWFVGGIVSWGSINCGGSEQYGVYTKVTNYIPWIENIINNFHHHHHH
- method_description: cell-based or functional assay
Bridge positions count the residues as written; N and C are the ends. Square brackets hold non-standard residues; d marks the D form. Ends that are not written are not given here. tBuAla = CC(C)(C)C[C@H](N)C(=O)O; PEG4 = NCCOCCOCCOCCOCCC(=O)O; Pen = CC(C)(S)[C@H](N)C(=O)O; Sar = CNCC(=O)O

[
  {
    "binder": "[Sar]ICSRS[tBuAla]PPI[Pen]IP[PEG4]-OH (disulfide 3-11; N-terminus assumed; SMILES CC[C@H](C)[C@H](NC(=O)CNC)C(=O)N[C@H]1CSSC(C)(C)[C@@H](C(=O)N[C@H](C(=O)N2CCC[C@H]2C(=O)NCCOCCOCCOCCOCCC(=O)O)[C@@H](C)CC)NC(=O)[C@H]([C@@H](C)CC)NC(=O)[C@@H]2CCCN2C(=O)[C@@H]2CCCN2C(=O)[C@H](CC(C)(C)C)NC(=O)[C@H](CO)NC(=O)[C@H](CCCNC(=N)N)NC(=O)[C@H](CO)NC1=O) [Example 485: ((N-Me)G)-IC+SRS-((tBu)A)-PPI-(Pen)+IP-(PEG3(16atoms))-OH]",
    "rat MASP2 IC50": "0.032 µM"
  }
]
